Documented IC50 across a set of binders
molecular target: T1, MAdCAM-IgG1 Fc fusion protein; assay: MAdCAM-IgG1 Fc fusion: JY cell binding assay (inhibition of JY cell adhesion)
T1 construct: Made in CHO-DHFR cells and coated on plates at 4.5 µg/mL
T1 sequence (chain, as listed by the source limits assumed): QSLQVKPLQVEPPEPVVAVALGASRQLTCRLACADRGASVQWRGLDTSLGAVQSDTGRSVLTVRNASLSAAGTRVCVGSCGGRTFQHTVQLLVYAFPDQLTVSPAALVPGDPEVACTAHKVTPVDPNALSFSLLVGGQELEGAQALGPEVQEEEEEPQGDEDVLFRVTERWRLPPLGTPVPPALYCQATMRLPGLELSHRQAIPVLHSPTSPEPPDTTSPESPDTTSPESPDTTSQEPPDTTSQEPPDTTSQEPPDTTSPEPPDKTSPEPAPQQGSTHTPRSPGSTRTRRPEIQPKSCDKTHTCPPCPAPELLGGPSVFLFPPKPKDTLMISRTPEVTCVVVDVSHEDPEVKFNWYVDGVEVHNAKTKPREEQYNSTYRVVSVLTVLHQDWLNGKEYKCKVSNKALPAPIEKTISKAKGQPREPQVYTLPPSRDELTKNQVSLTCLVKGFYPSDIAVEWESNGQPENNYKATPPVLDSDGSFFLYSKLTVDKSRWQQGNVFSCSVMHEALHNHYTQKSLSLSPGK
Only the number, expressed in µg/mL, is required.

Example entries and their recorded answers appear below.
{"binder": "6.34.2-mod_SSQ (antibody, human IgG2, kappa, V domains shown, Purified recombinant antibody) VH: QVQLVESGGGVVQPGRSLRLSCAASGFTFSSYGMHWVRQAPGKGLEWVAVISNDGNNKYYADSVKGRFTISRDNSKNTLYLQMNSLRAEDTAVYYCARDSTAITYYYYGMDVWGQGTTVTVSS VL: DIQMTQSPSSLSASVGDRVTITCRASQSISSYLNWYQQKPGKAPKLLIYAASSLSQGVPSRFSGSGSGTDFTLTISSLQPEDFATYYCHQSYSLPFTFGPGTKVDIKR", "numericReadout": 0.086}
{"binder": "9.8.2-mod_ΔRGAYH,D (antibody, human IgG4, kappa, V domains shown, Purified recombinant antibody; The heavy-chain constant region as printed is IgG4-like; also called 9.8.2_ΔRGAYH,D) VH: QVQLVESGGGVVQPGRSLRLSCAASGFTFSSYGMHWVRQAPGKGLEWVAVIWYDGSNEYYADSVKGRFTISRDNSKNTLYLQMNSLRAEDTAVYYCAFDYWGQGTLVTVSS VL: DIQMTQSPSSLSASVGDRVTITCQASQDISNYLNWYQQKPGKAPKLLIYDASNLETGVPSRFSGSGSGTDFTFTISSLQPEDIATYSCQHSDNLITFGQGTRLEIKR", "numericReadout": 0.072}

Complete the entry with IC50 for 6.34.2 (antibody, V domains shown) VH: QVQLVESGGGVVQPGRSLRLSCAASGFTFSSYGMHWVRQAPGKGLEWVAVISNDGNNKYYADSVKGRFTISRDNSKNTLYLQMNSLSAEDTAVYYCARDSTAITYYYYGMDVWGQGTTVTVSS VL: DIQMTQSPSSLSASVGDRVTITCRASQNISSYLNWFQQKPGKAPKLLIYAASGLKRGVPSRFSGSGSGTDFTLTIRTLQPDDFATYSCHQSYSLPFTFGPGTKVDIKR
0.013

Give a short answer stating reported IC50 for 6.22.2 (antibody, V domains shown) VH: QVQLVESGGGVVQPGRSLRLSCAASGHTFSSDGMHWVRQAPGKGLEWVAIIWYDGSNKYYADSVKGRFTISRDNSKNTLYLQMNSLRAEDTAVYYCARDPGYYYGMDVWGQGTTVTVSS VL: EIVLTQSPDFQSVTPKEKVTITCRASQRIGSSLHWYQQKPDQSPKLLIKYASQSFSGVPSRFSGSGSGTNFTLTINGLEAEDAATYYCHQSGRLPLTFGGGTKVEIKR .
0.018

Give a short answer stating reported IC50 for 6.22.2-mod_V (antibody, human IgG2, kappa, V domains shown, Purified recombinant antibody) VH: QVQLVESGGGVVQPGRSLRLSCAASGFTFSSDGMHWVRQAPGKGLEWVAVIWYDGSNKYYADSVKGRFTISRDNSKNTLYLQMNSLRAEDTAVYYCARDPGYYYGMDVWGQGTTVTVSS VL: EIVLTQSPDFQSVTPKEKVTITCRASQRIGSSLHWYQQKPDQSPKLLIKYASQSFSGVPSRFSGSGSGTDFTLTINSLEAEDAATYYCHQSGRLPLTFGGGTKVEIKR .
0.076

Identify IC50 associated with the binder 6.77.1-mod_ΔS (antibody, human IgG2, kappa, V domains shown, Purified recombinant antibody; also called 6.77.1-mod_ΔAS) VH: EVQLVESGGGLVKPGGSLRLSCAASGFTFSSYSMNWVRQAPGKGLEWVSSISSSSSYIYYADSVKGRFTISRDNAKNSLYLQMNSLRAEDTAVYYCARDGYSSGWYYYYYGMDVWGQGTTVTVSS VL: DIVMTQTPLSLSVTPGQPASISCKSSQSLLLSDGKTYLNWYLQKPGQPPQLLIYEVSNRFSGVPDRFSGSGSGTDFTLKISRVEAEDVGVYSCMQSIQLMSSFGQGTKLEIKR
0.0485
